System: UACC-62 melanoma
Assay: NCI-60 one-dose screen, 48 h
Conditions: 10 µM unless noted
About 83,000 compounds went through this panel and 20% of them were active in at least one assay; those are over-represented in the sample as a whole. Activity calls are given as the source filed them. How the source made its calls: active means growth percent below 10; inactive means the rest.
Classes used: YES (active), NO (inactive)

molecule: CCCCCCCCCCCCS(=O)CC(C)O (centres undefined)
group: NO
//
molecule: Cc1ccc(SCN2CCN(c3cccc(Cl)c3)CC2)cc1
group: NO
//
molecule: ClC1=C2NC=NC2n2c(nnc2-c2ccc(Cl)cc2)N1 (centres undefined)
group: NO
//
molecule: CCOC(=O)c1c2c(n3ccc(NC(=O)CCN4CCOCC4)cc13)C(=O)c1ncccc1C2=O
group: NO
//
molecule: Cc1cc(Nc2nc(-c3cccnc3)nc3ccccc23)n[nH]1
group: NO
//
molecule: CC/C(=C(\c1ccc(O)cc1)c1ccc(OCCN(C)CCN(C)C(=O)CCCCC(=O)c2c(C)[nH]c(/C=C3\N=C(c4ccc[nH]4)C=C3OC)c2C)cc1)c1ccccc1
group: NO
//
molecule: CC(C)[C@H]1COC(=O)N1[C@@H]1C(=O)N([C@@H](CCC(=O)N2CCN(C3CCCC3)CC2)C(=O)N[C@@H]2CCCc3ccccc32)[C@@H]1/C=C/c1cccc(Br)c1
group: NO
//
molecule: Cc1cc(N/N=C/c2nc(-c3ccc(Cl)cc3)oc2C)c2cc(Cl)ccc2n1
group: NO
//
molecule: COc1ccc(-c2nn(-c3ccccc3)cc2/C=C/C(=O)OCc2cn(-c3ccc(F)c(Cl)c3)nn2)cc1
group: NO
//
molecule: CC(C)[C@@H]1CC[C@]2(C(=O)NCCCCN=C(N)N)CC[C@]3(C)[C@H](CC[C@@H]4[C@@]5(C)CCC(=O)C(C)(C)[C@@H]5CC[C@]43C)[C@@H]12
group: NO
//
molecule: CNc1nc(C)c(-c2nc(Nc3cccc(S(N)(=O)=O)c3)ncc2F)s1
group: YES
//
molecule: CC1=CC(=O)CC(C)(C)[C@@]1(O)/C=C/[C@@H](C)O
group: NO
//
molecule: CCCCCCCCCc1cc(CN2CCCCC2)c(O)c(CN2CCCCC2)c1
group: NO
//
molecule: COc1cc(OC)c(/C=C/c2cc[n+](C)c3ccccc23)c(OC)c1
group: NO
//
molecule: C=CC[N+]1(CCO)CCN=C1CCCCCCCCCCCCC (centres undefined)
group: YES
//
molecule: COc1cc(-c2c3c(nc4c2c(C)nn4-c2ccccc2)-c2ccccc2C(=O)C3=O)cc(OC)c1OC
group: NO
//
molecule: CN1/C(=C\C=C\C2=[N+](C)c3ccccc3C2(C)C)C(C)(C)c2ccccc21
group: YES
//
molecule: Nc1cccc(NC(=O)C(=O)Nc2cccc(N)c2)c1
group: NO
//
molecule: CN(C)C(=O)c1cc2cnc(Nc3ccc(-c4csc5c(=O)cc(N6CCNCC6)oc45)cc3)nc2n1C1CCCC1
group: NO
//
molecule: CN1CCN(Cc2ccc(NC(=O)c3[nH]ncc3Nc3ncnc4c3CCC4)cc2)CC1
group: YES
//
molecule: Cc1ccc(S(=O)(=O)N(CCc2ccc(Cl)cc2)S(=O)(=O)c2ccc(C)cc2)cc1
group: NO
//
molecule: O=C(/C=C\c1cccc([N+](=O)[O-])c1)c1ccccc1
group: NO
//
molecule: CC1CN(Cc2ccco2)C(=S)N(c2ccccc2)C1=O (centres undefined)
group: NO
//
molecule: CC(C)(C)n1cc(-c2ccnc(NCCNS(=O)(=O)c3ccccc3)c2)c(-c2cccc(O)c2)n1
group: NO
//
molecule: CN(C)c1ccc(/C=C(\C#N)c2nc3ccccc3s2)cc1
group: NO
//
molecule: CC(=O)OCC1OC(OC2=C(CC=C(Cl)Cl)C(=O)c3ccccc3C2=O)C(OC(C)=O)C(OC(C)=O)C1OC(C)=O (centres undefined)
group: NO
//
molecule: COc1cc(C#N)cc(OC)c1OCCN(CCOc1c(OC)cc(C#N)cc1OC)S(=O)(=O)c1ccc(C)cc1
group: NO
//
molecule: COc1cc(/C=C2\CN(C(=O)CCN3CCC(=NO)CC3)C/C(=C\c3cc(OC)c(OC)c(OC)c3)C2=O)cc(OC)c1OC
group: YES
//
molecule: CCOc1ccc(Nc2nc(-c3c(C)nc4ncccn34)cs2)cc1
group: NO
//
molecule: COc1ccc(-n2c(C)nc3c(c(C)nn3-c3ccccc3)c2=O)cc1
group: NO
//
molecule: CNC(=S)N/N=C/CSC/C=N/NC(=S)NC
group: NO
//
molecule: Cc1cc2cc3cc(C)c(N(C)C)cc3[n+](C)c2cc1N(C)C
group: NO
//
molecule: CCC(=O)OCc1cccc(OC)c1
group: NO
//
molecule: COc1ccccc1-c1ccc2c(N)c(C(=O)c3ccc4c(c3)OCO4)sc2n1
group: NO
//
molecule: CCN(CC)CC(C)(C)C(=O)/C=C/c1ccccc1
group: NO
//
molecule: CC(=O)C1=C(O)C=C2Oc3c(C(=O)/C=C/c4cc(Cl)cc(Cl)c4)c(O)c(C)c(O)c3[C@]2(C)C1=O
group: YES
//
molecule: CCOC(=O)c1nc(Nc2cc(C)[nH]n2)c2ccccc2n1
group: NO
//
molecule: O=S(=O)(Nc1ccc(Cl)cc1Cl)c1ccc(-c2cnc(C3CC3)o2)cc1
group: NO
//
molecule: CN1CCN(Cc2ccc(NC(=O)c3[nH]ncc3Nc3ccnc4ccsc34)cc2)CC1
group: NO
